Target: human GLP-1 receptor (human, UniProt P43220 24-463)
Experiment: cell-based or functional assay
Bridge positions count the residues as written; N and C are the ends. Square brackets hold non-standard residues; d marks the D form. Ends that are not written are not given here. * marks the point of attachment. Acetyl(2-(4-imidazolyl)) = O=C(Cc1c[nH]cn1)*; Aib = CC(C)(N)C(=O)O
In vitro activity (%) compared with native peptide, vs GLP-1 reference

Take a look at these entries with their results.
binder	reading
[Acetyl(2-(4-imidazolyl))][Aib]QGTFTSDYSICMDEKHQKDFVNWLLNTK (bridge 16-20; not fully specified) [triple agonist of SEQ ID NO: 59]	40.3%
Y[Aib]QGTFTSDCSKYLDERAAKDFVQWLLDHHPSSGQPPPS (bridge 16-20) [triple agonist of SEQ ID NO: 72]	11.5%

Lab note: next binder to report on.
H[Aib]QGTFTSDYSIAMDEIHQKDFVNWLLAQKC (bridge 16-20; not fully specified) [triple agonist of SEQ ID NO: 33] yielded In vitro activity (%) compared with native peptide, vs GLP-1 of 24.5%

Every entry's value here was drawn from patent US20230355720A1.
